The following compounds are shown together with reported %-inhibition of JAK3 values.
system name: panel of more than 300 wild-type and mutant kinases (313 kinase panel) (Homo sapiens)
Sequence (P52333 1-1124): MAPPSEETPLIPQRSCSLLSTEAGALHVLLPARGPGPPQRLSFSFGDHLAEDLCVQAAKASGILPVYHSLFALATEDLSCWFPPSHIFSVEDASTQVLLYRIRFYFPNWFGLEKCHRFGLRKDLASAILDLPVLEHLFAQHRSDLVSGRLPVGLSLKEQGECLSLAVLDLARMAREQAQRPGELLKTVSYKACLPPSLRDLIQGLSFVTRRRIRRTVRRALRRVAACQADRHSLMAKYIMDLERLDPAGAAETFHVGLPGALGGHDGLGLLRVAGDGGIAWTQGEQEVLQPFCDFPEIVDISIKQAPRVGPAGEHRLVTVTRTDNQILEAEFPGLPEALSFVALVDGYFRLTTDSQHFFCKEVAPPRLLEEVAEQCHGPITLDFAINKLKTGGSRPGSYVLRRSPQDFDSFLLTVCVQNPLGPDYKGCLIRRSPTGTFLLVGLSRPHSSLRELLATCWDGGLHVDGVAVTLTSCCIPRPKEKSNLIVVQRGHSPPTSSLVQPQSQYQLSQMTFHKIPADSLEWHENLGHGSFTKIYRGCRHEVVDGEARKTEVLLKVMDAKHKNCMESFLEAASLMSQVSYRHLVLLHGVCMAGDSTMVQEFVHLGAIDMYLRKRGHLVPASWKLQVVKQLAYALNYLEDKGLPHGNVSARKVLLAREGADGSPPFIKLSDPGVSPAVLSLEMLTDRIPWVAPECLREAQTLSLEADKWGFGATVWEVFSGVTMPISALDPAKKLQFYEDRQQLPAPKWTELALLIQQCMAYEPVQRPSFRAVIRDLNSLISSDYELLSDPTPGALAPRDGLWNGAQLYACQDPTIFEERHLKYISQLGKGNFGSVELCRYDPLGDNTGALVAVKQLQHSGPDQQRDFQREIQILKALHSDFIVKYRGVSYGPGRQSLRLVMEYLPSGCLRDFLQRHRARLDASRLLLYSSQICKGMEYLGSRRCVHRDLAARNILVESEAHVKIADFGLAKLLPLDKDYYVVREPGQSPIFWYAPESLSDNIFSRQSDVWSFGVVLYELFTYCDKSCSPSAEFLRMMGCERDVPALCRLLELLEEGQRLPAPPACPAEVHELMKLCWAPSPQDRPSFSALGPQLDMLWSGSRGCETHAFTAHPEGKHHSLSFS
experimental details: Kinase profiling in a biochemical assay panel (mobility shift assays and ELISA), %-inhibition at 1 μM; selectivity entropy
assay context: kinase JAK3; compound at 1 μM
Response body: numeric value in %, unit text excluded.

compound | %-inhibition of JAK3 / %
COc1cc(Nc2c(C#N)cnc3cc(OCCCN4CCN(C)CC4)c(OC)cc23)c(Cl)cc1Cl | 67
CC(=O)Nc1cccc(-n2c(=O)n(C3CC3)c(=O)c3c(Nc4ccc(I)cc4F)n(C)c(=O)c(C)c32)c1 | 6
C[C@@H](Oc1cc(-c2cnn(C3CCNCC3)c2)cnc1N)c1c(Cl)ccc(F)c1Cl | 77
COc1cc2nccc(Oc3ccc(NC(=O)C4(C(=O)Nc5ccc(F)cc5)CC4)cc3)c2cc1OC [cabozantinib] | 2.34
CC(C)(C)c1nc(-c2cccc(NS(=O)(=O)c3c(F)cccc3F)c2F)c(-c2ccnc(N)n2)s1 | 22

# lookup: %-inhibition of JAK3 of `O=S(=O)(c1cccc2cnccc12)N1CCCNCC1` 4.46

Look at this compound and give its reported %-inhibition of JAK3. `Cc1ccc(C(=O)Nc2ccc(CN3CCN(C)CC3)c(C(F)(F)F)c2)cc1C#Cc1cnc2cccnn12` 98

If you can, please state the reported %-inhibition of JAK3 value of `Cc1ccc(Nc2nccc(N(C)c3ccc4c(C)n(C)nc4c3)n2)cc1S(N)(=O)=O` . 38
